# target-of-assay: T1, biotinylated hIL-33 protein (R&D systems, Cat #3625-IL/CF) (human, UniProt O95760 112-270, biotinylated (sites not given))
# T1 construct: Same commercial protein as m21, biotin-labelled; also called biotin-hIL-33
# T1 sequence (looked up): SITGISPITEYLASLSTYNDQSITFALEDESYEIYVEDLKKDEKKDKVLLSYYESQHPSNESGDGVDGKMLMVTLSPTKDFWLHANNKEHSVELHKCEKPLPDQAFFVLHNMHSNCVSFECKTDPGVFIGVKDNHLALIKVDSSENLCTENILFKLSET
# test-details: competition ELISA, 30 pM biotin-hIL-33 on coated hST2-hFc
Attribute: % Maximum blocking
Mention the unit after the number when you answer.

Example cases with answers are listed next.
| binder | value-type | recorded-value |
| --- | --- | --- |
| H4H9629P (antibody, human IgG4, V domains shown, Human IgG4 Fc (H4H)) VH: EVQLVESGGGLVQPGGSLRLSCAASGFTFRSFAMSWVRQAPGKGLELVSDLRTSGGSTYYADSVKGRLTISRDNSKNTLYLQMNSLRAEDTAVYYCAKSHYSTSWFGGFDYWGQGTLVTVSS VL: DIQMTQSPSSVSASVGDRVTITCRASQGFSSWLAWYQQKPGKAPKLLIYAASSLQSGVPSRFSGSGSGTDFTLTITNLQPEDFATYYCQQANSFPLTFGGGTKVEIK | % Maximum blocking | 80% |
| H1M9559N (antibody, mouse IgG1, V domains shown, Human variable domains, mouse IgG1 Fc (H1M)) VH: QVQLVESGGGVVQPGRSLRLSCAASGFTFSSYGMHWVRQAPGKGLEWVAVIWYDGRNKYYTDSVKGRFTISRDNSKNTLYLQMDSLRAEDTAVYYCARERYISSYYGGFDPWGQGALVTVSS VL: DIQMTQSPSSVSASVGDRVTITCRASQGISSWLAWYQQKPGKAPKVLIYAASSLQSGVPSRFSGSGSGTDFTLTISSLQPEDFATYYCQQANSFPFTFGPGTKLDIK | % Maximum blocking | 88% |
| H4H9633P (antibody, human IgG4, V domains shown, Human IgG4 Fc (H4H)) VH: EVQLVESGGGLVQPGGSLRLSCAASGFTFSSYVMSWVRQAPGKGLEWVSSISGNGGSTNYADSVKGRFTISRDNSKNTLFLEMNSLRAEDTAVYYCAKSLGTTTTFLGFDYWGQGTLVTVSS VL: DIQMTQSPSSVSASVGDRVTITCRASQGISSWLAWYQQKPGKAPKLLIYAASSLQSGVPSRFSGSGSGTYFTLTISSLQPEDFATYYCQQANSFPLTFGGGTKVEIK | % Maximum blocking | 66% |

Kindly review the next binder as well.
Challenge: What does the data say about its % Maximum blocking? Entry: H4H9662P (antibody, V domains shown, Human IgG4 Fc (H4H)) VH: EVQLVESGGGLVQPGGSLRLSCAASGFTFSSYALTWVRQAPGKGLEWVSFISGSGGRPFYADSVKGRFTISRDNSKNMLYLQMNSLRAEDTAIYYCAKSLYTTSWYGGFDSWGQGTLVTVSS VL: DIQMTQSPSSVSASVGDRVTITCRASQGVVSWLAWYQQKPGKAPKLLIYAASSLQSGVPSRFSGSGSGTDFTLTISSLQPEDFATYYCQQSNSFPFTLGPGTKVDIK
Response given: 77%
